Recorded log10 TGI for the following compounds
# System: BT-549 breast
# experiment description: NCI tumour cell line growth inhibition, 48 h
reported endpoint: log10 TGI (log10 of the value in µM)

{"compound": "COc1ccc(NC(=S)NC(=O)c2ccc3c(c2)Sc2ccccc2O3)c([N+](=O)[O-])c1", "log10 TGI": 1.85}
{"compound": "CCCCCCCCCc1nn2c(Cc3ccccc3)nnc2s1", "log10 TGI": 1.53}
{"compound": "Cc1ccc(NC(=O)c2cc(S(=O)(=O)N3C(=O)NC(=O)NS3(=O)=O)c(S)cc2Cl)cc1", "log10 TGI": 1.81}
{"compound": "Cc1cc(I)cc(CN(C)CCCN2CCCC2)c1O", "log10 TGI": 1.50}
{"compound": "O=C(O)[C@@H](Cc1ccc2ccccc2c1)NC(=O)n1c2ccccc2c2ccccc21", "log10 TGI": 1.15}
{"compound": "C=C1C(=O)O[C@H]2[C@H]1CC/C(COC(=O)NCC(C)c1ccc(CC(C)C)cc1)=C\\CC[C@@]1(C)O[C@@H]21 (some centres not stated)", "log10 TGI": 0.35}

###

Some compounds, each annotated with its measured TGI.
# Test system: 786-0 renal
# experiment description: NCI tumour cell line growth inhibition, 48 h

{"compound": "O=C(/C=C/c1ccccc1)c1ccc(NCc2nc3ccccc3[nH]2)cc1", "TGI": "14.4 µM"}
{"compound": "CCOC(=O)c1cc2c3c(c(O)c(OC)c2s1)N(C(=O)c1cc2c4c(c(O)c(OC)c2s1)N(C(C)=O)CC4)CC3", "TGI": "> 100 µM"}
{"compound": "CC(C)OC(=O)OCSc1ccccc1N=Cc1cccc([N+](=O)[O-])c1", "TGI": "> 10 µM"}
{"compound": "COC1CC(OC2CCC3(C)C(=CCC4C3C(OC(C)=O)C(OC(=O)CC(C)C)C3(C)C(C(C)=O)CCC43O)C2)OC(C)C1OC1CC(OC)C(OC2CC(OC)C(OC3OC(C)C(OC4OC(CO)C(O)C(O)C4O)C(OC)C3O)C(C)O2)C(C)O1 (stereo unspecified)", "TGI": "> 75 µM"}
{"compound": "Cn1c2c(c3ccccc31)CCN(CCN1CCN(c3cccc(Cl)c3)CC1)C2=O", "TGI": "> 100 µM"}
{"compound": "CN(C)CC1CCC(CN(C)C)C1=O (stereo unspecified)", "TGI": "4.11 µM"}

###

# Tested on: MALME-3M melanoma
# experiment description: NCI tumour cell line growth inhibition, 48 h
reported endpoint: TGI (µM)

{"molecule": "COc1ccc(OC)c(Cn2cc3c(c2-c2ccccc2)CCc2cnoc2-3)c1", "operator": ">", "endpoint value": 100}
{"molecule": "CCCCN(CC)CC(C(C)=O)c1c(O)c2ccccc2oc1=O (stereo not given)", "operator": ">", "endpoint value": 100}
{"molecule": "O=c1oc2ccc(I)cc2c(=O)n1-c1ccc(Cl)cc1F", "operator": "=", "endpoint value": 3.49}
{"molecule": "COc1c(O)c2c(=O)cc(OC)c3c4c(OC)cc(=O)c5c(O)c(OC)c6c(c(c1C(C(C)O)C6C(C)O)c23)c54 (stereo not given)", "operator": "=", "endpoint value": 2.75}
{"molecule": "CCCSc1nc(-c2ccc(OC)cc2)c(C#N)c(=O)n1C1OC(COC(C)=O)C(OC(C)=O)C(OC(C)=O)C1OC(C)=O (stereo not given)", "operator": ">", "endpoint value": 100}

These measurements were taken from PubChem BioAssay (NCI).
